Reported values of growth for individual entries
System: MOLT-4 leukemia
assay-explanation: NCI-60 one-dose screen, 48 h (100 = growth as untreated, 0 = no growth, -100 = all killed)
condition-summary: 10 µM unless noted
About 83,000 compounds went through this panel and 20% of them were active in at least one assay; those are over-represented in the sample as a whole. Activity calls are given as the source filed them. The calls were made as follows: active = growth percent below 10; inactive = the rest.
endpoint-label: growth

molecule	reported-value
COc1cc(OC)cc(C(=O)Nc2cc(-c3cccnc3)nc(NCCCN3CCOCC3)n2)c1	82.3% (inactive)
Cc1ccc(S(=O)(=O)Oc2ccc(Br)cc2Br)cc1	47.5% (inactive)
Nc1nc(Nc2ccccc2)c2ncn(Cc3ccc4c(c3)OCO4)c2n1	13.4% (inactive)
CCOc1ccc2sc(NS(=O)(=O)c3ccc(N)cc3)nc2c1	104% (inactive)
CCNc1cc2c(cc1Br)-c1ccccc1C2=O	98.3% (inactive)
N#C/C(C(=O)c1ccccc1)=C1/C(=O)Nc2ccc(F)cc21	104% (inactive)
CCOc1ccccc1/C=N\Nc1ccc(S(=O)(=O)c2ccc(N/N=C/c3ccccc3OCC)cc2)cc1	80.8% (inactive)
CC1(C)CC[C@]2(C(=O)O)CC[C@]3(C)[C@H](CC[C@@H]4[C@@]5(C)CCC(=O)C(C)(C)[C@@H]5CC[C@]43C)[C@H]2[C@H]1OC(=O)C(F)(F)F	-26.4% [100 µM] (active)
COc1ccc(C2CC(c3cc(OC)c(OC)c(OC)c3)=NN2C(C)=O)cc1OCC(=O)Nc1nc2ccc(C(F)(F)F)cc2s1 (stereo not given)	60% (inactive)
CCCCCCCCCN(CCCCCCCCC)C(C)C(=O)c1ccc2cc(Br)c3ccccc3c2c1 (stereo not given)	86% (inactive)
COc1ccc(-c2cc(-c3ccc(Cl)cc3)nc(NCCCCNc3ccnc4cc(Cl)ccc34)n2)cc1	3.22% (active)
C=C(C)[C@@H]1CC[C@]2(COC(=O)c3ccccc3C(=O)O)CC[C@]3(C)[C@H](CC[C@@H]4[C@@]5(C)CC[C@H](OC(=O)c6ccccc6C(=O)O)C(C)(C)[C@@H]5CC[C@]43C)[C@@H]12	39.9% [100 µM] (inactive)
CC(=O)n1cc(C=O)c2ccccc21	91% (inactive)
CN(C)Cc1ccc[nH]1	107% (inactive)
FC(F)(F)c1ccc2c(c1)Sc1ccccc1N2	88.7% (inactive)
O=C(N/N=C/c1c(Cl)cccc1Cl)c1cccc(Nc2ccnc(C(F)(F)F)c2)c1	88.1% (inactive)
COc1cc(-c2nc(SCCC(C)C)nc(Nc3ccccc3)c2C#N)cc(OC)c1OC	84.3% (inactive)
Cc1ccc(NCCN2CCCCC2)c2c(=O)c3ccccc3sc12	11.4% (inactive)
CCc1ccc(-c2ccc(COc3ccc(CC4SC(=O)NC4=O)cc3)cc2)cc1 (stereo not given)	58.5% (inactive)
COc1ccc(OC)c([N+](=O)[O-])c1C(=O)CNC(C)=O	101% (inactive)

====

System: SF-539 CNS
assay-explanation: NCI-60 one-dose screen, 48 h
condition-summary: 10 µM unless noted
This is part of a sample that, as a whole, favours compounds with a hit. Of some 83,000 tested, about 20% had one in any assay. Calls of active or inactive are those of the source. How the source made its calls: active means growth percent below 10; inactive means the rest.
Labels: active, inactive

>>> df
                                   molecule  label_value
0    Cc1ccc(NCCN2CCCCC2)c2c(=O)c3ccccc3sc12     inactive
1  O=C1C(Cl)=C(Nc2ccc3cn[nH]c3c2)C(=O)c2ccccc21     inactive
2  C=C(C)[C@@H]1CC[C@]2(C)[C@H](CC[C@@H]3[C@@H]([C@@](C)(O)CCC=C(C)C)CC[C@]32C)[C@@]1(C)CCC(=O)O       active
3   O=[N+]([O-])c1ccc(O)c(-c2nc3ccccc3s2)c1     inactive
4  O=c1[nH]cnc2c1ccn2C1OC(CO)C(O)C1O (stereo not given)     inactive

Taken from PubChem BioAssay (NCI).
